Source of measurements: the supplement of paper PMC10724198

Test system: Saccharomyces cerevisiae
Assay: protein stability index of tFT-peptide fusion (C-terminal peptide) (PSI (0-1 scale)); higher = more stable (slower turnover)
Details: genetic background: wild type; temperature: 30 C
Kindly supply the reported protein stability index values for the records listed here.
Reply: number alone, nothing else.

protein stability index in this record for SRVRTIVRNGSR : 0.777

Reported protein stability index ( GAGGSAGARSAE ) = 0.702

For reference, reported protein stability index for GGGWGSMDLRDR stands at 0.712

# protein stability index of LVHGWERPSRVR = 0.661

Summary for this sequence, PCFLLPLPHTPP : protein stability index is 0.707

Note to self: protein stability index recorded for FIWRFYSLPLGC was 0.623

Kindly note the recorded protein stability index for GRERMVVVSCGS , which is 0.629

The recorded protein stability index for WFSGFLGEFNRF is 0.706

Form: sequence = LLTGPYRCIPLV ; protein stability index = 0.608

Record summary for ITGPPTGSPRYR : reported protein stability index = 0.588

---

System: Saccharomyces cerevisiae;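 further: PSI is a weighted mean of sequencing reads over stability bins, variants kept only with over 10 reads, mCherry proximal and sfGFP distal, peptide attached via GGGS linker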
Test: protein stability index of tFT-peptide fusion (C-terminal peptide) (PSI (0-1 scale)); higher = more stable (slower turnover)
Conditions: genetic background: wild type; temperature: 30 C
What protein stability index was measured for each of the following?
Just the number, please, no unit attached.

Entry SPPRSVSVGVHK : protein stability index on Saccharomyces cerevisiae = 0.637

protein stability index on Saccharomyces cerevisiae for PPQLHVALPHPE is 0.852

Saccharomyces cerevisiae data for SGAGGGGWGGGV ; its protein stability index: 0.754

Reported Saccharomyces cerevisiae protein stability index for item PEGICYCHSPAP was 0.694

Record EESKQKKKNEEE has Saccharomyces cerevisiae protein stability index equal to 0.676

The observed protein stability index for RLRGGVPGRTVG when tested with Saccharomyces cerevisiae stands at 0.68

Case GIANHAMVIVVL , Saccharomyces cerevisiae, protein stability index recorded as 0.404

Measured protein stability index (Saccharomyces cerevisiae), entry NRFFFRHGCVVF : 0.691

Measured protein stability index for this entry CTLMPPQSRRPP on Saccharomyces cerevisiae: 0.604

For MSRRSVFGAVFW on Saccharomyces cerevisiae, measured protein stability index was 0.663

protein stability index of IENKKEKKIMIE , assay on Saccharomyces cerevisiae, is 0.665

Let me check: RGPPPTSPPSPP , system Saccharomyces cerevisiae, measured protein stability index is 0.664

Lab note: sequence WIISERDRTEQT tested on Saccharomyces cerevisiae; recorded protein stability index was 0.733

Recorded protein stability index for SRSHSPLCPSFA on Saccharomyces cerevisiae was 0.604

Simply: GGSRRGRRLLTQ , Saccharomyces cerevisiae, protein stability index = 0.699

With Saccharomyces cerevisiae as the test system, GEGAWNRKKPGD showed protein stability index of 0.632

Entry GGVVRGVWVGRG under Saccharomyces cerevisiae had protein stability index of 0.725

PVRVRGRGGCGG on Saccharomyces cerevisiae gives protein stability index = 0.684

# IGGFGVRIYFGG with Saccharomyces cerevisiae: protein stability index is 0.627

The measured protein stability index that GRGRGEVMNGRG showed for Saccharomyces cerevisiae is 0.574

So the reported protein stability index for TIAETIGCEKII , on Saccharomyces cerevisiae, turned out to be 0.785

// sequence IALVFCPMNGRI , assay Saccharomyces cerevisiae, protein stability index value: 0.686

The sequence SDPPPPPDPPSP on Saccharomyces cerevisiae: protein stability index was 0.673

Assay Saccharomyces cerevisiae, sample SWVIRSDLHYAL , protein stability index read: 0.731

Record GRVGSLCGWLWR ; system Saccharomyces cerevisiae; protein stability index = 0.722

Summary line: PPPPSPPATPAP , Saccharomyces cerevisiae, reported protein stability index = 0.652

Measured on Saccharomyces cerevisiae, GVGGVCEMVAIK has a documented protein stability index of 0.506

The reported protein stability index value, Saccharomyces cerevisiae, for GFEIFYLVLGIP reads 0.53

GET /values?item= FRCFVLPYFGRF &system= Saccharomyces cerevisiae returns protein stability index: 0.435

Entry SLWTDGYIFVLE under Saccharomyces cerevisiae had protein stability index of 0.732

Summary: IDPPSLCTPPPP , Saccharomyces cerevisiae, protein stability index = 0.635

Given the sequence KIMKINIYQKKR and test system Saccharomyces cerevisiae, the measured protein stability index is 0.691

Entry ESPPVCFLFSSC , tested on Saccharomyces cerevisiae, has a reported protein stability index of 0.711

Field protein stability index (system: Saccharomyces cerevisiae) for entry TVAPNFIPTSTS = 0.662

// returns protein stability index for KKKEGRMKQIYE with Saccharomyces cerevisiae; value = 0.688

Record SSSPLPPLRLCL / Saccharomyces cerevisiae, protein stability index recorded as 0.743

protein stability index for Saccharomyces cerevisiae with input GPRRLGGTSLGI equals 0.651

The sequence APLTVLTARSLF , tested on Saccharomyces cerevisiae, showed protein stability index of 0.763

Note to self: protein stability index of WRAVVVSGTVAY with Saccharomyces cerevisiae was 0.578

protein stability index on Saccharomyces cerevisiae for FWERWDLFCGLC is 0.702

Field protein stability index (Saccharomyces cerevisiae), entry RSRKKKERWKTE : 0.707

Observed protein stability index, Saccharomyces cerevisiae, KEEKNEENNKKE : 0.641

Reading of protein stability index for GRLGCAVCGSRG with Saccharomyces cerevisiae: 0.708

// assay Saccharomyces cerevisiae, entry SPPPAPPPPPQT , protein stability index value = 0.665

The reported protein stability index value, Saccharomyces cerevisiae, for PPPPLLPPPSPL reads 0.7

Entry YNSTVVKKGRCP , tested on Saccharomyces cerevisiae, has a reported protein stability index of 0.702

Record PMLRSLVVLSSR ; system Saccharomyces cerevisiae; protein stability index = 0.669

Saccharomyces cerevisiae protein stability index of SWHTSRPPPPPF is 0.656

Item GYDEREKPVLLR ; assay system Saccharomyces cerevisiae; protein stability index reported as 0.753

Log: Saccharomyces cerevisiae, sequence SWWGDVVWFVVC , protein stability index = 0.282

Param item: LWRRPASSLLPI ; param system: Saccharomyces cerevisiae; output protein stability index: 0.701

I looked up GRNFSHKKRGKY and its protein stability index for Saccharomyces cerevisiae was 0.685

Kindly note: Saccharomyces cerevisiae, SFSFPFGCSSRF , protein stability index value reported: 0.719

// sequence DSVSLPYVSRPL , assay Saccharomyces cerevisiae, protein stability index value: 0.768

Field protein stability index (system: Saccharomyces cerevisiae) for entry LAWFDLAPSTLP = 0.827

Recorded protein stability index for PPPPPSPSPCLA on Saccharomyces cerevisiae was 0.767

Tested on Saccharomyces cerevisiae: QKIIKKIQTIVD . Observed protein stability index: 0.697

Tested on Saccharomyces cerevisiae: FLLNPPSLPCYY . Observed protein stability index: 0.727

Note to self: protein stability index of RGRQRSDPPTRL with Saccharomyces cerevisiae was 0.717

The measured protein stability index that LNLACCWFVRCR showed for Saccharomyces cerevisiae is 0.349

Test item RFFPPPARPSPF ; Saccharomyces cerevisiae; reported protein stability index was 0.732

Measured protein stability index (Saccharomyces cerevisiae), entry ARPPRASRISSL : 0.81

Simply: PWPGSWALFCFI , Saccharomyces cerevisiae, protein stability index = 0.719

Noted protein stability index for PCPAPLPPPAPP , tested on Saccharomyces cerevisiae: 0.619

Saccharomyces cerevisiae data for CSSARVLPLPVP ; its protein stability index: 0.661

Saccharomyces cerevisiae data for PWTSSTTSRFPS ; its protein stability index: 0.727

Reported protein stability index (Saccharomyces cerevisiae) for entry CPGLYVRAYGHC is 0.613

Form field, protein stability index with Saccharomyces cerevisiae, item PQWVSIGSACCQ : 0.754

Reading of protein stability index for SFEFSSRVFSLD with Saccharomyces cerevisiae: 0.714

Record GITSGRAVGGRA ; system Saccharomyces cerevisiae; protein stability index = 0.713

Summary line: GMRRGGGWCRGW , Saccharomyces cerevisiae, reported protein stability index = 0.674

The measured protein stability index that PLPPSPLESVDT showed for Saccharomyces cerevisiae is 0.637

For LSLCPVHRLLVL on Saccharomyces cerevisiae, measured protein stability index was 0.498

Hey, Saccharomyces cerevisiae data for GWSWGGVRTGSC : protein stability index came out at 0.841

Reported protein stability index (Saccharomyces cerevisiae) for entry KKMSGNKLKNKN is 0.643

Observed protein stability index, Saccharomyces cerevisiae, VSVRLWSGQSAG : 0.672

// assay Saccharomyces cerevisiae, entry GYGRLVSSQSFR , protein stability index value = 0.888

Saccharomyces cerevisiae assay, sequence DDSQKLTNNNEG , recorded protein stability index = 0.744

// returns protein stability index for KCEKGLYCCIAF with Saccharomyces cerevisiae; value = 0.504

Entry VSRGGVAYGRVG , tested on Saccharomyces cerevisiae, has a reported protein stability index of 0.742

Summary line: PPPLPSPPRPPS , Saccharomyces cerevisiae, reported protein stability index = 0.734

Tested system Saccharomyces cerevisiae; protein stability index recorded for VVSFDPLFPSPR was 0.706
